- assaySystem: Rat brain constitutive nitric oxide synthase (rnNOS) (Rattus norvegicus)
pIC50: −log10 of the molar value.
measuredQuantity: pIC50

Asked: Consider the compound CSCC(=N)N . State its measured pIC50.
Given back: 5.15

Asked: Supply recorded pIC50 for N=C(N)C1CC1 here.
Given back: 5.00

---

- assaySystem: Mouse inducible nitric oxide synthase (miNOS) (Mus musculus, UniProt P29477)
- Construct: was prepared from an extract of LPS-treated RAW 264.7 cells and partially purified by DEAE-Sepharose chromatography; endogenous in cells
- Sequence (P29477 whole entry): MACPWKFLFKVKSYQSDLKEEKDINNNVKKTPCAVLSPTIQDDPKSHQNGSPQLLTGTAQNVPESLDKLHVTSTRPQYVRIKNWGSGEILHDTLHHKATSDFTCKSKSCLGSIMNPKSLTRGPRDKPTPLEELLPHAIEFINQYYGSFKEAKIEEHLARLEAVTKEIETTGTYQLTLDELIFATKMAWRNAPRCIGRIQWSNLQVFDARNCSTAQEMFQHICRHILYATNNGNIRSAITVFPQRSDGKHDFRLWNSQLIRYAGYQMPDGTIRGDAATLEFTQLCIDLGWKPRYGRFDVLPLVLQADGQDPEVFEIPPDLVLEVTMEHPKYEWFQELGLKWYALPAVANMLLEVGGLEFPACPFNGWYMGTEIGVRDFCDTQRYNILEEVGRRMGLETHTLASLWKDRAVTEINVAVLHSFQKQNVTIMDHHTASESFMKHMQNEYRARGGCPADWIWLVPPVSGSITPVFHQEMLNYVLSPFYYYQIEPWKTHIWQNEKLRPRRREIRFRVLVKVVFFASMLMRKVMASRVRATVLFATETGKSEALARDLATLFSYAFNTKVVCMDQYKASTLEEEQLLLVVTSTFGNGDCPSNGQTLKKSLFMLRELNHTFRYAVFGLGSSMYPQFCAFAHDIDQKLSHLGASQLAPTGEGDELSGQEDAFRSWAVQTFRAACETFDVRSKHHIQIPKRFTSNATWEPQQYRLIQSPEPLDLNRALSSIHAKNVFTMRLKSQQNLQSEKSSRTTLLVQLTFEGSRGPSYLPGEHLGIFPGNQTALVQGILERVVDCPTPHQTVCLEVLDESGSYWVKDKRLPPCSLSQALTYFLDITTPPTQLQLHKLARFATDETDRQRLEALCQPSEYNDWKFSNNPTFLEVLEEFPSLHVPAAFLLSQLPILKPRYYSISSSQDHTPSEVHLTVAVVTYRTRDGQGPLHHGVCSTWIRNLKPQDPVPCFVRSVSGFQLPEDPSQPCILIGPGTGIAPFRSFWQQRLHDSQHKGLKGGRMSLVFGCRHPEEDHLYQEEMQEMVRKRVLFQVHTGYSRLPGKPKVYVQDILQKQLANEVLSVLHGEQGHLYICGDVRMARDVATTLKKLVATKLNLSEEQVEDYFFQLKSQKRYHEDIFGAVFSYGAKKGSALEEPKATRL
- experimentNotes: Citrulline Assay for Nitric Oxide Synthase, mouse inducible NOS
- conditionDetails: mouse iNOS; 30 μM L-arginine, 37° C., 15 minutes
pIC50: −log10 of the molar value.
measuredQuantity: pIC50

Asked: Using the record for CCCC(=N)N [Example 4, 1-Propylcarbamidine] , state its measured pIC50.
Given back: 5.70

[P] N=C(N)c1cccs1 [Example 8, 2-Amidinothiophene]
[Q] CC(C)C(=N)N [Example 3, Isopropylcarbamidine]
[R] CCC(=N)N [Example 5, Ethylcarbamidine]
[S] N=C(N)C1CC1 [Example 2, Cyclopropylcarbamidine]
Asked: Output the entries ranked by pIC50 from maximum down to minimum. # list labels per requested ordering
Given back: P, S, R, Q
